test system: MDCK; experiment: Permeability from apical to basolateral side in MDCK cells; format: ADME, cell-based, Canis lupus familiaris; settings: dog
Value Type: permeability (nm/s)
Provide the reading as a plain figure in nm/s.

// molecule C[C@H](CO)CONC(=O)c1ncc2cncn2c1Nc1ccc(I)cc1F , assay MDCK, permeability value: 79

----------
tested on: Rattus norvegicus; assay: Dose normalized AUC in rat at 5 mg/kg, po; type: ADME, organism-based; parameters: dose 5 mg/kg, route oral; conditions: in vivo
Each entry below carries its reported AUC/dose.

# example entries with known answers
O=C(NOCCO)c1ccc2cncn2c1Nc1ccc(I)cc1F	20 µM·h
O=C(NOCCO)c1cc(F)c2cncn2c1Nc1ccc(I)cc1F	41 µM·h
O=C(NOCCO)c1ccn2cncc2c1Nc1ccc(I)cc1F	37 µM·h
O=C(NOCCO)c1ncc2cncn2c1Nc1ccc(I)cc1F	1.48 µM·h
C[C@H](CO)CONC(=O)c1ncc2cncn2c1Nc1ccc(I)cc1F	9.2 µM·h

Could you now look at the following compound, please?
Recorded result, C[C@H](O)CONC(=O)c1ncc2cncn2c1Nc1ccc(I)cc1F , AUC/dose: 0.61 µM·h

----------
biological target: Cytochrome P450 2D6 (Homo sapiens); assay: Inhibition of CYP2D6 (unknown origin); type: ADME
Sequence (P10635 whole entry): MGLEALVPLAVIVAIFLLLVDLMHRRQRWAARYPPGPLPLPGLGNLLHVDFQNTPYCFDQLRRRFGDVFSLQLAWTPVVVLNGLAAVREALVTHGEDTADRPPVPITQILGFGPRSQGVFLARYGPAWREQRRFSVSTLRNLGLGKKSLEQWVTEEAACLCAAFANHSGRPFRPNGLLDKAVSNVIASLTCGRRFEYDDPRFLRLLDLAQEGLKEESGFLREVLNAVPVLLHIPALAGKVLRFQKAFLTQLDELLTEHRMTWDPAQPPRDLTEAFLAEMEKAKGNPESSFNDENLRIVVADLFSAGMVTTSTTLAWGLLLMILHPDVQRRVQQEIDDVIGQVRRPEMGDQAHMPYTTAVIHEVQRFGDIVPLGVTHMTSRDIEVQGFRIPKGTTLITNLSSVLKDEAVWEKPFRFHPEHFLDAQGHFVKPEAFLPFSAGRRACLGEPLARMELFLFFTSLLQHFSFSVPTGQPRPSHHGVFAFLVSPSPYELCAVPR
Value Type: IC50

// molecule O=C(NOCCO)c1ccn2cncc2c1Nc1ccc(I)cc1F , assay Cytochrome P450 2D6 (Homo sapiens), IC50 value: > 10 µM

----------
assay: Protein binding in rat plasma; assay type: ADME, cell-free; conditions: read-out: PPB (converted)
Value Type: fraction unbound
Quick one: just the number, no unit, thanks!

# example entries with known answers
C[C@H](CO)CONC(=O)c1ncc2cncn2c1Nc1ccc(I)cc1F	0.13
O=C(NOCCO)c1cc(F)c2cncn2c1Nc1ccc(I)cc1F	0.03
O=C(NOCCO)c1ccc2cncn2c1Nc1ccc(I)cc1F	0.01

Recorded result, C[C@H](O)CONC(=O)c1ncc2cncn2c1Nc1ccc(I)cc1F , fraction unbound: 0.055

Recorded result, O=C(NOCCO)c1ncc2cncn2c1Nc1ccc(I)cc1F , fraction unbound: 0.08

Recorded result, O=C(NOCCO)c1ccn2cncc2c1Nc1ccc(I)cc1F , fraction unbound: 0.022

----------
assay: Dissociation constant, pKa of the compound by Sirius based assay; type: physicochemical
Value Type: pKa
Quick one: just the number, no unit, thanks!

O=C(NOCCO)c1ccc2cncn2c1Nc1ccc(I)cc1F	4.3

Could you now look at the following compound, please?
Recorded result, O=C(NOCCO)c1ncc2cncn2c1Nc1ccc(I)cc1F , pKa: 2.03

----------
assay: Hepatic clearance in mouse liver microsomes; format: ADME
# CLhep predicted >= 60 mL/min/kg gives Satisfied, anything below gives Not satisfied

Here's what some known entries look like.
C[C@H](O)CONC(=O)c1ncc2cncn2c1Nc1ccc(I)cc1F	Not satisfied
O=C(NOCCO)c1ncc2cncn2c1Nc1ccc(I)cc1F	Not satisfied
C[C@H](CO)CONC(=O)c1ncc2cncn2c1Nc1ccc(I)cc1F	Not satisfied
O=C(NOCCO)c1ccn2cncc2c1Nc1ccc(I)cc1F	Satisfied

Now consider a different molecule.
[Q] Has O=C(NOCCO)c1ccc2cncn2c1Nc1ccc(I)cc1F a recorded CLhep predicted greater than or equal to 60 mL/min/kg?
[A] Satisfied
